test: Antioxidant activity assessed as ferric to ferrous reduction at 20 ug/ml by FRAP assay; assay type: functional
MEASUREMENT LABEL: Activity
Output: the number by itself.

Task: Fill in the blank: the reported Activity of CCOc1cccc(C(CC)c2ccc(O)c(OC)c2)c1O (centres undefined) is ____.
Result: 0.22

Task: Requested field: Activity. Item: C/C=C\c1ccc(O)c(OC)c1
Result: 0.37

Task: What value of measured Activity is listed for Cc1cc(C(C)(C)C)c(O)c(C(C)(C)C)c1 [BUTYLATED HYDROXYTOLUENE] ?
Result: 0.39

Task: # Activity lookup, item CCC(c1ccc(O)c(OC)c1)c1cccc(O)c1O (centres undefined)
Result: 0.54

Task: Which measured Activity value corresponds to CCC(c1ccc(O)c(OC)c1)c1cccc(C(C)C)c1O (centres undefined) ?
Result: 0.2

Task: Would you kindly share the measured Activity for CCC(c1ccc(O)c(OC)c1)c1ccccc1O (centres undefined) ?
Result: 0.27

Task: Any idea what Activity was measured for Cc1c(C)c2c(c(C)c1O)CCC(C)(C(=O)O)O2 (centres undefined) ?
Result: 0.38

Task: Which Activity is reported for this molecule? CCC(c1ccc(O)c(OC)c1)c1ccc(O)cc1O (centres undefined)
Result: 0.32

Task: Look up Activity: CCC(c1ccc(O)c(O)c1)c1ccc(O)c(OC)c1 (centres undefined)
Result: 0.55

====

Task for the reader: assign each of the following molecules its reported IC50.
test: Antioxidant activity assessed as superoxide radical scavenging activity after 40 mins by Zhishen's method; assay type: functional
Give the quantity in µM, number only.

Task: Param item = CCC(c1ccc(O)c(OC)c1)c1cccc(O)c1O (stereo not drawn) ; retrieve measured IC50.
Result: 6.17

Task: Return reported IC50; argument: Cc1c(C)c2c(c(C)c1O)CCC(C)(C(=O)O)O2 (stereo not drawn)
Result: 61.3

Task: Please report the recorded IC50 for CCC(c1ccc(O)c(OC)c1)c1cccc(C(C)C)c1O (stereo not drawn) .
Result: 10.1

====

Can you tell me pIC50 for the items I'm about to list?
tested on: Radical scavenging activity; experiment: Antioxidant activity assessed as residual DPPH radical scavenging activity after 30 mins by spectrophotometric analysis; type: functional
Convention used: pIC50 is expressed as -log10 of the molar concentration.

Task: Quick one: pIC50 of Cc1cc(C(C)(C)C)c(O)c(C(C)(C)C)c1 [BUTYLATED HYDROXYTOLUENE] ?
Result: 4.94

Task: Look at this compound and give its reported pIC50. CCC(c1ccc(O)c(OC)c1)c1cccc(C(C)C)c1O (centres undefined)
Result: 5.20

Task: Need pIC50 of CCOc1cccc(C(CC)c2ccc(O)c(OC)c2)c1O (centres undefined) , thanks.
Result: 5.21

Task: Field request: pIC50 | item: Cc1c(C)c2c(c(C)c1O)CCC(C)(C(=O)O)O2 (centres undefined) [TROLOX]
Result: 5.23

Task: Need pIC50 of CCC(c1ccc(O)c(OC)c1)c1cccc(O)c1O (centres undefined) , thanks.
Result: 5.24

Task: pIC50 for CCC(c1ccc(O)c(OC)c1)c1ccc(O)cc1O (centres undefined) ?
Result: 5.17

Task: // lookup pIC50 for CCC(c1ccc(O)c(OC)c1)c1ccccc1O (centres undefined)
Result: 5.11

Task: Sample CCC(c1ccc(O)c(O)c1)c1ccc(O)c(OC)c1 (centres undefined) — what was its pIC50?
Result: 5.24

Task: Can you share its pIC50? I mean this compound: C/C=C\c1ccc(O)c(OC)c1 [ISOEUGENOL]
Result: 4.39

====

experiment: Antioxidant activity assessed as superoxide radical scavenging activity after 40 mins by Zhishen's method; format: functional
Can you tell me IC50 for the items I'm about to list?
In your response, the unit should come after the numeric value.

Task: For Cc1cc(C(C)(C)C)c(O)c(C(C)(C)C)c1 [BUTYLATED HYDROXYTOLUENE] , what is its reported IC50?
Result: 28.4 µM

Task: # IC50 lookup, item CCOc1cccc(C(CC)c2ccc(O)c(OC)c2)c1O (stereo unspecified)
Result: 13.7 µM

Task: Param item = CCC(c1ccc(O)c(OC)c1)c1ccc(O)cc1O (stereo unspecified) ; retrieve measured IC50.
Result: 15.3 µM

Task: Give its IC50 value. Item: CCC(c1ccc(O)c(OC)c1)c1ccccc1O (stereo unspecified)
Result: 10.5 µM

Task: Entry C/C=C\c1ccc(O)c(OC)c1 has what IC50?
Result: 42.3 µM

Task: May I ask what IC50 has been recorded for CCC(c1ccc(O)c(O)c1)c1ccc(O)c(OC)c1 (stereo unspecified) ?
Result: 6.61 µM

====

test: Antioxidant activity assessed as inhibition of linoleic acid lipid peroxidation at 100 ug/ml measured after 36 hrs by ferric thiocynate method; type: functional
Kindly supply the reported inhibition values for the records listed here.
Give a bare numeral; the unit % is implied.

Task: Look at this molecule and give its reported inhibition. C/C=C\c1ccc(O)c(OC)c1 [ISOEUGENOL]
Result: 82

Task: Looking for the measured inhibition of CCOc1cccc(C(CC)c2ccc(O)c(OC)c2)c1O (centres undefined) , can you help?
Result: 96

Task: # lookup: inhibition of Cc1c(C)c2c(c(C)c1O)CCC(C)(C(=O)O)O2 (centres undefined) [TROLOX]
Result: 86

Task: // lookup inhibition for CCC(c1ccc(O)c(OC)c1)c1ccc(O)cc1O (centres undefined)
Result: 94

Task: Tell me the measured inhibition of CCC(c1ccc(O)c(OC)c1)c1cccc(C(C)C)c1O (centres undefined) , please.
Result: 96

Task: Which inhibition reading was recorded for the molecule CCC(c1ccc(O)c(O)c1)c1ccc(O)c(OC)c1 (centres undefined) ?
Result: 97

Task: Which value of inhibition has been reported for CCC(c1ccc(O)c(OC)c1)c1ccccc1O (centres undefined) in the records?
Result: 96

Task: Which inhibition value belongs to CCC(c1ccc(O)c(OC)c1)c1cccc(O)c1O (centres undefined) ?
Result: 96

Task: Fill in the blank: the reported inhibition of Cc1cc(C(C)(C)C)c(O)c(C(C)(C)C)c1 [BUTYLATED HYDROXYTOLUENE] is ____.
Result: 98
